Experimental system: T1, DegS Q191A (E. coli, UniProt P0AEE3 27-355, Q191A)
T1 sequence (looked up): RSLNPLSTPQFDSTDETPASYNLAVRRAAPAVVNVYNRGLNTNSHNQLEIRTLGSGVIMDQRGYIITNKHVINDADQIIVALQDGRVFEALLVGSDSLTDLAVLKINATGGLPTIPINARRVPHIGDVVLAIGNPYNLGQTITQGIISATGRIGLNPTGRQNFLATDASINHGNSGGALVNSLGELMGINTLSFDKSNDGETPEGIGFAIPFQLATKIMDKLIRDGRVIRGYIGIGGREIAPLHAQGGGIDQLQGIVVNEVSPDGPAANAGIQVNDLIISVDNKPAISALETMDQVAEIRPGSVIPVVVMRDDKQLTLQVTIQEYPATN
Assay notes: fluorescence polarisation
Where no end group is shown, it is not given here. fluorescein = fluorescein, a fluorescent label on the peptide N-terminus
Recorded metric: Kd

Exam item: State the recorded Kd for this entry: fluorescein-DNRDGNVYYF [fluorescent OMP peptide fluorescein-DNRDGNVYYF]
Marked response: 3.4 µM

The reported measurements were obtained from paper PMC4351158.
